Experiment: Cytotoxic MTS assay, BJ
Type: cell-based
Conditions: human, BJ cells (non-malignant fibroblasts)
measurement_kind: IC50 at 72 h

>>> df
                                   compound  measurement_kind  assay_result
0  O[C@H]1[C@H]2[C@H](O)CCCN2C[C@H]1O [Compound 1, (1S,2R,8R,8aR)-trihydroxy-indolizidine]      IC50 at 72 h      > 200 µM

###

Tested on: K562-TAX (acute myeloid leukemia, overexpressing the P-glycoprotein)
Assay: Cytotoxic MTS assay, K562-TAX
Assay type: cell-based
Settings: 72 h, read-out: Cytotoxic activity IC50, K562-TAX
measurement_kind: IC50 (µM)

                                   compound  assay_result
0  O[C@H]1[C@H]2[C@H](O)CCCN2C[C@H]1O [Compound 1, (1S,2R,8R,8aR)-trihydroxy-indolizidine]           137
